tgt: human α2β2γ2S GABAAR (Homo sapiens, UniProt P18507+P47869+P47870)
Construct: 1:1:5 in the zolpidem comparison)
Sequence (P47869 29-451, one chain of several): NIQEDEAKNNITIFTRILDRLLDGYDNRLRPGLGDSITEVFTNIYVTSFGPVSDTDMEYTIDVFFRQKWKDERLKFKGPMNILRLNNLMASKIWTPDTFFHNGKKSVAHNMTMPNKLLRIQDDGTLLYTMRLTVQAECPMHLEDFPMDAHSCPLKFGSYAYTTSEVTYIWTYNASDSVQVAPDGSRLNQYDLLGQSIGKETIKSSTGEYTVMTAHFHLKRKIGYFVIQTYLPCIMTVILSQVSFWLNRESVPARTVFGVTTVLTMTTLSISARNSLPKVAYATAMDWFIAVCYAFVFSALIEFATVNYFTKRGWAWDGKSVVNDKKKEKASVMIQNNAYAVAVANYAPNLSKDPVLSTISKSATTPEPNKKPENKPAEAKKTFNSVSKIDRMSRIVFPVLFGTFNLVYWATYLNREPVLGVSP
Sequence (P18507 40-467 isoform P18507-1 limits assumed, one chain of several): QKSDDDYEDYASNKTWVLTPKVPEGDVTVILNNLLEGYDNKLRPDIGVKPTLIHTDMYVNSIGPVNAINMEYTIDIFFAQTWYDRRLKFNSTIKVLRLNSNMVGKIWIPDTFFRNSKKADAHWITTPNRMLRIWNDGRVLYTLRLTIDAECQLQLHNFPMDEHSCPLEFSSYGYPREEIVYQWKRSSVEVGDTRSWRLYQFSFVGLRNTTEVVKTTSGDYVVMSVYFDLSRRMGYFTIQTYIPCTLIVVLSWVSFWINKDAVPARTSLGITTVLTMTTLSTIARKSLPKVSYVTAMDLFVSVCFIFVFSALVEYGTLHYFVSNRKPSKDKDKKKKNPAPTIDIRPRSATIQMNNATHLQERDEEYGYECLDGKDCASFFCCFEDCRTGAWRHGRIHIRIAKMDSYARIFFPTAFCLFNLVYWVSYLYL
test-summary: Potentiation of GABA EC20-evoked currents, TEVC in Xenopus oocytes
measured-metric: pEC50
Reminder that pEC50 is minus the log10 of a molar concentration.

Past entries and their recorded results:
>>> number("O=C1CN=C(c2ccccc2Cl)c2cc([N+](=O)[O-])ccc2N1")
8.13
>>> number("O=C1CC(=O)N(c2ccccc2)c2cc(Cl)ccc2N1")
6.86

With those in mind, consider the next compound.
pEC50 of CN1C(=O)CC(=O)N(c2ccccc2)c2cc(Cl)ccc21 on human α2β2γ2S GABAAR (Homo sapiens, UniProt P18507+P47869+P47870)?
6.86

----------
tgt: human α6β2δ GABAAR (Homo sapiens, UniProt P47870+Q16445)
Construct: expressed in transfected cells; host or cells: Xenopus laevis oocytes (cRNA injection, α6:β2:δ 10:1:10)
Sequence (Q16445 20-453): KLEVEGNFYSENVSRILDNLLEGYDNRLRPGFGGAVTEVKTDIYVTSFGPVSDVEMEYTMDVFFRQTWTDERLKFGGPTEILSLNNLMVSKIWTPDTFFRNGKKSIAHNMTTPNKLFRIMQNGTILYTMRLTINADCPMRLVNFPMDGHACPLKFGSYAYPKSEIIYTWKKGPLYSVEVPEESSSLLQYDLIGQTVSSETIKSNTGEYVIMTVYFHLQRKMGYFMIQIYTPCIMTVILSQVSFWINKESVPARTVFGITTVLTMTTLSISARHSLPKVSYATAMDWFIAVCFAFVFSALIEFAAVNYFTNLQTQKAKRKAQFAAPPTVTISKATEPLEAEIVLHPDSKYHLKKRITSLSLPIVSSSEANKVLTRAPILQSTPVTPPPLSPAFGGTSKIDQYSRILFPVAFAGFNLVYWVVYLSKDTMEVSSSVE
Sequence (P47870 26-474 isoform P47870-1 limits assumed): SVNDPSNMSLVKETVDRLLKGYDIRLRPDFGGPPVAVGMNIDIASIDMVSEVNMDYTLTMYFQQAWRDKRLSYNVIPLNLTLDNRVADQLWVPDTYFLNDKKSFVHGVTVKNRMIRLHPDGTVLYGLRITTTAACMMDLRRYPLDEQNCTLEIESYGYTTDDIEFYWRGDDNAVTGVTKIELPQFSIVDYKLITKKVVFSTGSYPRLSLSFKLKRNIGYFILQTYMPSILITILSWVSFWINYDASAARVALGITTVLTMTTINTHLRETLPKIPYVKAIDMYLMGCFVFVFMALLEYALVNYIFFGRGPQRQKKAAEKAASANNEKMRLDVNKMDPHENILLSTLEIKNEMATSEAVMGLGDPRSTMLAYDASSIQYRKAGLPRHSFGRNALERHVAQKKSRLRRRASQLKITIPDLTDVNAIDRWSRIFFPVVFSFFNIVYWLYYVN
Sequence (O14764 25-452 partner): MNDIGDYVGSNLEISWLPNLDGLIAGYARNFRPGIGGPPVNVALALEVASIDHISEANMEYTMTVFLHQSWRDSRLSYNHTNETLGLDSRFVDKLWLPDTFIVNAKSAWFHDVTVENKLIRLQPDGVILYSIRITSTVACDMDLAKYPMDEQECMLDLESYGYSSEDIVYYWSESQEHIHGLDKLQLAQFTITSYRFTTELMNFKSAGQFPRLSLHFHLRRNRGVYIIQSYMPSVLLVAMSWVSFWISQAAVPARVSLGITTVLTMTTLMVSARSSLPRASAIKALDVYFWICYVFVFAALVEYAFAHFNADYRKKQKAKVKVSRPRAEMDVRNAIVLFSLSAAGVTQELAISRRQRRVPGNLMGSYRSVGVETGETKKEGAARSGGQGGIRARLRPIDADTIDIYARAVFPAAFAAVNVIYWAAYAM
test-summary: Potentiation of GABA EC20-evoked currents, TEVC in Xenopus oocytes
Format: cell-based
experimental-parameters: EC50, PAM, co-applied with GABA EC20; N-desmethylclobazam value estimated, curve not saturated at 1 mM
Text: The cDNAs encoding the human GABAAR subunits were linearized with DraIII (α1, α2, α3, α5 and α6), SmaI (β2 and γ2S) or StuI (δ) and used as templates for in vitro cRNA synthesis using the T7 mMESSAGE mMACHINE High Yield Capped RNA Transcription Kit (Life Technologies Corporation, Carlsbad, CA, USA). […]
# EC50 listing for each entry below
Field format: number, assumed µM, no unit text.

>>> number("CN1C(=O)CC(=O)N(c2ccccc2)c2cc(Cl)ccc21 [clobazam]")
55

With those in mind, consider the next molecule.
EC50 of O=C1CN=C(c2ccccc2Cl)c2cc([N+](=O)[O-])ccc2N1 [clonazepam] on human α6β2δ GABAAR (Homo sapiens, UniProt P47870+Q16445)?
29

----------
tgt: human α6β2 GABAAR (Homo sapiens, UniProt P47870+Q16445)
test-summary: Potentiation of GABA EC20-evoked currents, TEVC in Xenopus oocytes
pEC50: −log10 of the molar value.
measured-metric: pEC50

// returns reported pEC50 for input O=C1CC(=O)N(c2ccccc2)c2cc(Cl)ccc2N1 [N-desmethylclobazam]
~3.52
